Test Summary: amyloid nucleation score (Sup35N fusion, yeast selection) (log enrichment); library NNK2; higher = more nucleation; inactive = no reads after selection;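 note: zero at mode of non-aggregating sequences after 7 days selection at 30°C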
Metric: amyloid nucleation score
Give the figure by itself; no unit, no explanation.

Just so you know, measured amyloid nucleation score for `PCNTVLASPRYHVGGIYNLK` came out at -0.727

Field amyloid nucleation score (entry `TGYVTRIVAAFCSQKIFVWV` ) reads -0.547

Entry `GMVRRQVTLMSSSDRAI` — recorded amyloid nucleation score = -1.07

Record `SSASALMKLVMMY` , field amyloid nucleation score: -0.003

// amyloid nucleation score lookup, sequence = `NTSFFDGTFLY` , result: 0.598

`YPRALIHVWKKSLVHTSRCR` yielded amyloid nucleation score of 7.14

Reported amyloid nucleation score for `YSSSKNTVVMSAKSMVRLRT` was 0.52

The recorded amyloid nucleation score for `LFTIVTTFKRS` is 6.44

Kindly note the recorded amyloid nucleation score for `SVSLDMGFSLDSHMRGEGRS` , which is 5.22

So, `MACTFHVLTMGRFWSAWHRM` ? Its amyloid nucleation score was 0.598

Entry source: the supplement of paper PMC12042874
